Conditions: in ethanol, 288.15 K
experimental-readout: solubility (mole fraction)

>>> observed_measurement("CCC(C)n1ncn(-c2ccc(N3CCN(c4ccc(OC[C@H]5CO[C@](Cn6cncn6)(c6ccc(Cl)cc6Cl)O5)cc4)CC3)cc2)c1=O (mixture of isomers)")
"9.34e-06"

---

Conditions: in DMSO, 318.15 K
experimental-readout: solubility (mole fraction)

>>> observed_measurement("CCC(C)n1ncn(-c2ccc(N3CCN(c4ccc(OC[C@H]5CO[C@](Cn6cncn6)(c6ccc(Cl)cc6Cl)O5)cc4)CC3)cc2)c1=O (mixture of isomers)")
0.000888

---

Settings: in water, 293.15 K
experimental-readout: solubility (mole fraction)

>>> observed_measurement("CCC(C)n1ncn(-c2ccc(N3CCN(c4ccc(OC[C@H]5CO[C@](Cn6cncn6)(c6ccc(Cl)cc6Cl)O5)cc4)CC3)cc2)c1=O (mixture of isomers)")
"1.03e-08"
